All values here come from ChEMBL document CHEMBL5034010.

I'd appreciate it if you could supply fold change (FC) values for the items below.
# Tested on: Enterobacter cloacae
# protocol_details: Inhibition of Metallo-beta-lactamase IMP-1 in Enterobacter cloacae clinical isolate assessed as fold reduction in meropenem MIC at 32 ug/ml
# condition_context: dose 32.0 µg/ml
One number for each entry.

Known results for compounds:
compound	fold change (FC)
O=C(Cc1ccccc1)N[C@@H]1C(=O)N2C(C(=O)O)=C(CSCCc3ccccc3)CS[C@H]12	2
O=C(Cc1ccccc1)N[C@@H]1C(=O)N2C(C(=O)O)=C(CS[C@@H](Cc3ccccc3)C(=O)O)CS[C@H]12	2
O=C(O)CSCC1=C(C(=O)O)N2C(=O)[C@@H](NC(=O)Cc3ccccc3)[C@H]2SC1	2

Each of the following entries comes with a recorded value; kindly state fold change (FC) for each.
1. O=C(Cc1ccccc1)N[C@@H]1C(=O)N2C(C(=O)O)=C(CSC(C(=O)O)c3ccccc3)CS[C@H]12 (some centres undefined)
2. O=C(Cc1ccccc1)N[C@@H]1C(=O)N2C(C(=O)O)=C(CSCc3ccccc3)CS[C@H]12
3. O=C(Cc1ccccc1)N[C@@H]1C(=O)N2C(C(=O)O)=C(CSCC(=O)c3ccccc3)CS[C@H]12
4. CC1=C(C(=O)O)N2C(=O)[C@@H](NC(=O)Cc3ccccc3)[C@H]2SC1
5. O=C(O)c1cccc(C(=O)O)n1
6. O=C(Cc1ccccc1)N[C@@H]1C(=O)N2C(C(=O)O)=C(CS[C@H](Cc3ccccc3)C(=O)O)CS[C@H]12

result:
[32, 4, 2, 1, 2, 32]

----------
# System: Klebsiella pneumoniae
# protocol_details: Inhibition of Metallo-beta-lactamase IMP-28 in Klebsiella pneumoniae clinical isolate assessed as fold reduction in meropenem MIC at 32 ug/ml
# condition_context: dose 32.0 µg/ml
metric: fold change (FC)
One number for each entry.

In the examples that follow, each entry is paired with its recorded fold change (FC).
structure_smiles_string	fold change (FC)
O=C(Cc1ccccc1)N[C@@H]1C(=O)N2C(C(=O)O)=C(CSCC(=O)c3ccccc3)CS[C@H]12	4
O=C(Cc1ccccc1)N[C@@H]1C(=O)N2C(C(=O)O)=C(CSCc3ccccc3)CS[C@H]12	4
O=C(O)CSCC1=C(C(=O)O)N2C(=O)[C@@H](NC(=O)Cc3ccccc3)[C@H]2SC1	8

For every listed record, write down its fold change (FC).
1. CC1=C(C(=O)O)N2C(=O)[C@@H](NC(=O)Cc3ccccc3)[C@H]2SC1
2. O=C(Cc1ccccc1)N[C@@H]1C(=O)N2C(C(=O)O)=C(CSCCc3ccccc3)CS[C@H]12

result:
2
8

----------
# System: Escherichia coli
# protocol_details: Inhibition of Metallo-beta-lactamase NDM-1 in Escherichia coli clinical isolate assessed as fold reduction in meropenem MIC at 64 ug/ml
# condition_context: dose 64.0 µg/ml
Would you mind telling me the reported fold change (FC) of each entry?
One number for each entry.

Use these answered entries as a reference point.
compound	test_value
O=C(O)CSCC1=C(C(=O)O)N2C(=O)[C@@H](NC(=O)Cc3ccccc3)[C@H]2SC1	2
O=C(Cc1ccccc1)N[C@@H]1C(=O)N2C(C(=O)O)=C(CSC(C(=O)O)c3ccccc3)CS[C@H]12 (some centres undefined)	2
O=C(Cc1ccccc1)N[C@@H]1C(=O)N2C(C(=O)O)=C(CS[C@@H](Cc3ccccc3)C(=O)O)CS[C@H]12	2

Now, please, on to the next compound.
query: May I ask what fold change (FC) has been recorded for O=C(O)c1cccc(C(=O)O)n1 [DIPICOLINIC ACID] ?
result: 64

----------
Would you mind telling me the reported fold change (FC) of each entry?
# Test system: Escherichia coli
# protocol_details: Inhibition of Metallo-beta-lactamase VIM-2 in Escherichia coli clinical isolate assessed as fold reduction in meropenem MIC at 64 ug/ml
# condition_context: dose 64.0 µg/ml

Record excerpt, results attached:
compound	fold change (FC)
O=C(Cc1ccccc1)N[C@@H]1C(=O)N2C(C(=O)O)=C(CS[C@H](Cc3ccccc3)C(=O)O)CS[C@H]12	2
O=C(Cc1ccccc1)N[C@@H]1C(=O)N2C(C(=O)O)=C(CS[C@@H](Cc3ccccc3)C(=O)O)CS[C@H]12	1
O=C(Cc1ccccc1)N[C@@H]1C(=O)N2C(C(=O)O)=C(CSCC(=O)c3ccccc3)CS[C@H]12	2

Now for a further compound.
query: Dear colleague, I am looking for the recorded fold change (FC) of the following compound: O=C(O)c1cccc(C(=O)O)n1 [DIPICOLINIC ACID]
result: > 64

----------
# protocol_details: Inhibition of Klebsiella pneumoniae beta-lactamase IMP-28 using nitrocefin chromogenic substrate measured after 15 to 60 min at 25 degC by microplate reader
metric: IC50 (µM)
Give bare numbers, in µM.

Recorded IC50, per entry:
compound	unit_descriptor	IC50
O=C(Cc1ccccc1)N[C@@H]1C(=O)N2C(C(=O)O)=C(CSCC(=O)c3ccccc3)CS[C@H]12	µM	14
O=C(Cc1ccccc1)N[C@@H]1C(=O)N2C(C(=O)O)=C(CS[C@H](Cc3ccccc3)C(=O)O)CS[C@H]12	µM	1.1
O=C(Cc1ccccc1)N[C@@H]1C(=O)N2C(C(=O)O)=C(CSCc3ccccc3)CS[C@H]12	µM	45

// each listed compound needs a value for IC50
1. O=C(Cc1ccccc1)N[C@@H]1C(=O)N2C(C(=O)O)=C(CSCCc3ccccc3)CS[C@H]12
2. O=C(Cc1ccccc1)N[C@@H]1C(=O)N2C(C(=O)O)=C(CS[C@@H](Cc3ccccc3)C(=O)O)CS[C@H]12
3. O=C(Cc1ccccc1)N[C@@H]1C(=O)N2C(C(=O)O)=C(CSC(C(=O)O)c3ccccc3)CS[C@H]12 (stereo partly drawn)

result:
1: 4.3; 2: 30; 3: 0.46

----------
# Test system: Enterobacter cloacae
# protocol_details: Inhibition of Metallo-beta-lactamase IMP-1 in Enterobacter cloacae clinical isolate assessed as fold reduction in meropenem MIC at 128 ug/ml
# condition_context: dose 128.0 µg/ml
Please provide measured fold change (FC) for the entries that follow.

compound	fold change (FC)
O=C(Cc1ccccc1)N[C@@H]1C(=O)N2C(C(=O)O)=C(CSCCc3ccccc3)CS[C@H]12	2
O=C(Cc1ccccc1)N[C@@H]1C(=O)N2C(C(=O)O)=C(CS[C@H](Cc3ccccc3)C(=O)O)CS[C@H]12	64
O=C(Cc1ccccc1)N[C@@H]1C(=O)N2C(C(=O)O)=C(CSCc3ccccc3)CS[C@H]12	8

Below are 6 compounds. Give each one its fold change (FC).
1. O=C(O)CSCC1=C(C(=O)O)N2C(=O)[C@@H](NC(=O)Cc3ccccc3)[C@H]2SC1
2. O=C(Cc1ccccc1)N[C@@H]1C(=O)N2C(C(=O)O)=C(CS[C@@H](Cc3ccccc3)C(=O)O)CS[C@H]12
3. O=C(Cc1ccccc1)N[C@@H]1C(=O)N2C(C(=O)O)=C(CSC(C(=O)O)c3ccccc3)CS[C@H]12 (some centres undefined)
4. O=C(Cc1ccccc1)N[C@@H]1C(=O)N2C(C(=O)O)=C(CSCC(=O)c3ccccc3)CS[C@H]12
5. O=C(O)c1cccc(C(=O)O)n1
6. CC1=C(C(=O)O)N2C(=O)[C@@H](NC(=O)Cc3ccccc3)[C@H]2SC1

result:
[4, 4, 64, 4, 128, 1]

----------
# System: Escherichia coli
# protocol_details: Inhibition of Metallo-beta-lactamase VIM-2 in Escherichia coli clinical isolate assessed as MIC for meropenem antibacterial activity at 32 ug/ml (reference value: 4 ug/ml)
# condition_context: dose 32.0 µg/ml
Kindly state MIC for each of the entries shown.
Give bare numbers, in µg/mL.

structure_smiles_string	MIC (µg/mL)
O=C(O)CSCC1=C(C(=O)O)N2C(=O)[C@@H](NC(=O)Cc3ccccc3)[C@H]2SC1	2
O=C(Cc1ccccc1)N[C@@H]1C(=O)N2C(C(=O)O)=C(CSCc3ccccc3)CS[C@H]12	2

Now take the following compound into account.
query: Hi! What's the reported MIC for `CC1=C(C(=O)O)N2C(=O)[C@@H](NC(=O)Cc3ccccc3)[C@H]2SC1` on Escherichia coli?
result: 2

----------
Answer each item with its documented MIC.
# Tested on: Escherichia coli
# protocol_details: Inhibition of Metallo-beta-lactamase VIM-2 in Escherichia coli clinical isolate assessed as MIC for meropenem antibacterial activity at 128 ug/ml (reference value: 8 ug/ml)
# condition_context: dose 128.0 µg/ml
Answers are plain numbers, in µg/mL.

The following compounds have reported results that may help.
compound	experimental_system	metric	unit_descriptor	test_value
O=C(Cc1ccccc1)N[C@@H]1C(=O)N2C(C(=O)O)=C(CSCCc3ccccc3)CS[C@H]12	Escherichia coli	MIC	µg/mL	4
O=C(Cc1ccccc1)N[C@@H]1C(=O)N2C(C(=O)O)=C(CSC(C(=O)O)c3ccccc3)CS[C@H]12 (stereo not given in full)	Escherichia coli	MIC	µg/mL	1
O=C(Cc1ccccc1)N[C@@H]1C(=O)N2C(C(=O)O)=C(CSCC(=O)c3ccccc3)CS[C@H]12	Escherichia coli	MIC	µg/mL	4
O=C(Cc1ccccc1)N[C@@H]1C(=O)N2C(C(=O)O)=C(CS[C@@H](Cc3ccccc3)C(=O)O)CS[C@H]12	Escherichia coli	MIC	µg/mL	4

Shift focus to the following entry.
query: // map `O=C(Cc1ccccc1)N[C@@H]1C(=O)N2C(C(=O)O)=C(CS[C@H](Cc3ccccc3)C(=O)O)CS[C@H]12` to recorded MIC (system: Escherichia coli)
result: 2
